The entries below are paired with their reported Kd.
study_target: T1, Human CD24-mFc (human, UniProt P25063 27-59)
T1 chain: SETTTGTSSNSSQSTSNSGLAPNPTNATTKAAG
assay_overview: BLI (Gatorprime)
Value expressed in nM; do not type the unit.

Some binders with recorded Kd:
81A1F8-VH-21/VL-41 (antibody, V domains shown) VH: QVQLVQSGAEVKKPGASVKVSCKASGYLFTGYYMNWVRQAPGQGLEWMGEINPNTGDTNNNQKFKARVTMTVDRSTSTAYMELSSLRSEDTAVYYCVRRDYGTSLDYWGQGTLVTVSS VL: DVQITQSPSTLSASVGDRVTITCRASKSINKYLAWYQQKPGKAPKLLIHSGSTLQSGVPSRFSGSRSGTEFTLTISSLQPDDFATYYCQQHNEYPITFGQGTKLEIK	0.525
81A1F8-VH-21/VL-31 (antibody, V domains shown) VH: QVQLVQSGAEVKKPGASVKVSCKASGYLFTGYYMNWVRQAPGQGLEWMGEINPNTGDTNNNQKFKARVTMTVDRSTSTAYMELSSLRSEDTAVYYCVRRDYGTSLDYWGQGTLVTVSS VL: DVQITQSPSSLSASVGDRVTITCRASKSINKYLAWYQQKPGKVPKLLIHSGSTLQSGVPSRFSGSRSGTDFTLTISSLQPEDFATYYCQQHNEYPITFGQGTKLEIK	0.712
81A1F8-VH-31/VL-31 (antibody, V domains shown) VH: QVQLVQSGAEVKKPGASVKVSCKASGYLFTGYYMNWVRQAPGQRLEWMGEINPNTGDTNNNQKFKARVTITVDRSASTAYMELSSLRSEDTAVYYCVRRDYGTSLDYWGQGTLVTVSS VL: DVQITQSPSSLSASVGDRVTITCRASKSINKYLAWYQQKPGKVPKLLIHSGSTLQSGVPSRFSGSRSGTDFTLTISSLQPEDFATYYCQQHNEYPITFGQGTKLEIK	1.11
81A1F8-VH-11/VL-21 (antibody, V domains shown) VH: QVQLVQSGAEVKKPGASVKVSCKASGYLFTGYYMNWVRQAPGQGLEWMGEINPNTGDTNNNQKFKARVTMTVDRSISTAYMELSRLRSDDTAVYYCVRRDYGTSLDYWGQGTLVTVSS VL: DVQITQSPSFLSASVGDRVTITCRASKSINKYLAWYQQKPGKAPKLLIHSGSTLQSGVPSRFSGSRSGTEFTLTISSLQPEDFATYYCQQHNEYPITFGQGTKLEIK	0.139

Consider the additional binder presented here.
Please indicate Kd recorded for 81A1F8-VH-11/VL-41 (antibody, V domains shown) VH: QVQLVQSGAEVKKPGASVKVSCKASGYLFTGYYMNWVRQAPGQGLEWMGEINPNTGDTNNNQKFKARVTMTVDRSISTAYMELSRLRSDDTAVYYCVRRDYGTSLDYWGQGTLVTVSS VL: DVQITQSPSTLSASVGDRVTITCRASKSINKYLAWYQQKPGKAPKLLIHSGSTLQSGVPSRFSGSRSGTEFTLTISSLQPDDFATYYCQQHNEYPITFGQGTKLEIK
0.619
